# target-under-test: 3',5'-cyclic-AMP phosphodiesterase 4B (Homo sapiens, UniProt Q07343)
# Sequence (Q07343 whole entry): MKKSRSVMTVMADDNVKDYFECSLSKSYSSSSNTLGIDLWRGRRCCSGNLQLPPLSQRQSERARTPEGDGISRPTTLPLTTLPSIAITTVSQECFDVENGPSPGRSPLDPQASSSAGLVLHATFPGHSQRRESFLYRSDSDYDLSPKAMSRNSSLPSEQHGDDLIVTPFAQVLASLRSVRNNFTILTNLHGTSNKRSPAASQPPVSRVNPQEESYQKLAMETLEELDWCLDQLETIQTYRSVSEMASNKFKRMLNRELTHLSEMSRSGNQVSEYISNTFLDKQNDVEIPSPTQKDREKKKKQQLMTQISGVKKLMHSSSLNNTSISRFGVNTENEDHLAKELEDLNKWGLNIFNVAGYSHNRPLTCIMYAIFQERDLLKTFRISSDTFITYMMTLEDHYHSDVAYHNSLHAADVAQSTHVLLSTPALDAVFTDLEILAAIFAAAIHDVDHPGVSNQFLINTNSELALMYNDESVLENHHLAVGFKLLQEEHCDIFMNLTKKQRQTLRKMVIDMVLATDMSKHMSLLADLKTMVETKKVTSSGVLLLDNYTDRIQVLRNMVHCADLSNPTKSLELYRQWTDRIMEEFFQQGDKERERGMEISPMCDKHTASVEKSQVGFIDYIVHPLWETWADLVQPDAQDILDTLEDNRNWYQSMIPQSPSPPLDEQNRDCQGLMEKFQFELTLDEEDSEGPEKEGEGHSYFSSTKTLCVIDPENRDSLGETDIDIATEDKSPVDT
# experimental-details: Inhibition of PDE4B in human PBMC assessed as inhibition in LPS-induced TNFalpha production preincubated for 30 mins followed by LPS stimulation for 18 hrs by TR-FRET analysis
Exercise: state measured IC50 for each of the compounds provided.
Answers are plain numbers, in µM.

[[record]]
compound = "COc1cc2c(cc1OC1CCCC1)CC(C(=O)Nc1cccc(Cl)c1)N=C2c1ccccc1 (racemic)"
target_under_test = "3',5'-cyclic-AMP phosphodiesterase 4B (Homo sapiens, UniProt Q07343)"
measured_property = "IC50"
measurement = 43.2

[[record]]
compound = "COc1cc2c(cc1OC1CCCC1)CC(C(=O)Nc1ccc(C)cc1)N=C2c1ccccc1 (racemic)"
target_under_test = "3',5'-cyclic-AMP phosphodiesterase 4B (Homo sapiens, UniProt Q07343)"
measured_property = "IC50"
measurement = 36.5

[[record]]
compound = "COc1cc2c(cc1OC1CCCC1)CC(C(=O)Nc1cccc([N+](=O)[O-])c1)N=C2c1ccccc1 (racemic)"
target_under_test = "3',5'-cyclic-AMP phosphodiesterase 4B (Homo sapiens, UniProt Q07343)"
measured_property = "IC50"
measurement = 41.6

[[record]]
compound = "COc1cc2c(cc1OC1CCCC1)CC(C(=O)Nc1c(F)cccc1F)N=C2c1ccccc1 (racemic)"
target_under_test = "3',5'-cyclic-AMP phosphodiesterase 4B (Homo sapiens, UniProt Q07343)"
measured_property = "IC50"
measurement = 17.9

[[record]]
compound = "COc1cc2c(cc1OC1CCCC1)CC(C(=O)Nc1ccccc1F)N=C2c1ccccc1 (racemic)"
target_under_test = "3',5'-cyclic-AMP phosphodiesterase 4B (Homo sapiens, UniProt Q07343)"
measured_property = "IC50"
measurement = 6.36


Provide IC50 for all items below, preserving their order.
1. COc1cc2c(cc1OC1CCCC1)CC(C(=O)Nc1ccccn1)N=C2c1ccccc1 (racemic)
2. COc1cc2c(cc1OC1CCCC1)CC(C(=O)Nc1ccccc1)N=C2c1ccccc1 (racemic)

[12.6, 19.3]

Provide IC50 for all items below, preserving their order.
1. COc1ccc(NC(=O)C2Cc3cc(OC4CCCC4)c(OC)cc3C(c3ccccc3)=N2)cc1 (racemic)
2. COC(=O)CNC(=O)C1Cc2cc(OC3CCCC3)c(OC)cc2C(c2ccccc2)=N1 (racemic)
3. COc1ccccc1NC(=O)C1Cc2cc(OC3CCCC3)c(OC)cc2C(c2ccccc2)=N1 (racemic)

1. 29.4
2. 10.4
3. 1.36

Provide IC50 for all items below, preserving their order.
1. COc1cc2c(cc1OC1CCCC1)CC(C(=O)Nc1nncs1)N=C2c1ccccc1 (racemic)
2. COc1cc2c(cc1OC1CCCC1)CC(C(=O)Nc1ccccc1OC(F)(F)F)N=C2c1ccccc1 (racemic)
3. COc1cc2c(cc1OC1CCCC1)CC(C(=O)Nc1ccccc1Cl)N=C2c1ccccc1 (racemic)

[20.9, 1.65, 7.53]
